Measured MIC of individual entries
- Tested on: S. aureus erm A genotype
- protocol-notes: CLSI broth dilution MIC determination
- Assay type: cell-based
- reported-conditions: S. aureus erm A genotype; Gram-positive

IN: Quote MIC reported for CC[C@H]1OC(=O)[C@H](C)[C@@H](O[C@H]2C[C@@](C)(OC)[C@@H](O)[C@H](C)O2)[C@H](C)[C@@H](O[C@@H]2O[C@H](C)C[C@H](N(C)C)[C@H]2O)[C@](C)(O)C[C@@H](C)CN(C)[C@H](C)[C@@H](O)[C@]1(C)O [Azithro, azithromycin, reference compound] please.
OUT: > 32 µg/mL

IN: Give a short answer stating reported MIC for CC[C@H]1OC(=O)[C@@](C)(F)C(=O)[C@H](C)[C@@H](O[C@@H]2OC(C)CC(N(C)C)C2O)[C@](C)(OC)C[C@@H](C)C(=O)[C@H](C)[C@H]2N(C/C=C\Cn3cc(-c4cccc(N)c4)nn3)C(=O)O[C@]12C (some centres unmarked) .
OUT: > 32 µg/mL

###

Entries and their measured MIC follow.
- System: P. aeruginosa MP-8 PAO1:mex (mex-oprM-deletion)
- protocol-notes: CLSI broth dilution MIC determination
- Format: cell-based
- reported-conditions: Pseudomonas aeruginosa, PAO1
Provide the reading as a plain figure in µg/mL.

Below are worked cases with known answers.
1. CC[C@H]1OC(=O)[C@@](C)(F)C(=O)[C@H](C)[C@@H](O[C@@H]2OC(C)CC(N(C)C)C2O)[C@](C)(OC)C[C@@H](C)C(=O)[C@H](C)[C@H]2N(CC#CCn3cc(-c4cccnn4)nn3)C(=O)O[C@]12C (some centres unmarked) [FSM-130217]; 16
2. CC[C@H]1OC(=O)[C@H](C)C(=O)[C@H](C)[C@@H](O[C@@H]2OC(C)CC(N(C)C)C2O)[C@](C)(OC)C[C@@H](C)C(=O)[C@H](C)[C@H]2N(CC#CCn3cc(-c4cc(F)ccn4)nn3)C(=O)O[C@]12C (some centres unmarked) [FSM-100566]; 8
3. CC[C@H]1OC(=O)[C@@](C)(F)C(=O)[C@H](C)[C@@H](O[C@@H]2OC(C)CC(N(C)C)C2O)[C@](C)(OC)C[C@@H](C)C(=O)[C@H](C)[C@H]2N(CC#CCn3cc(-c4cc(N)ccn4)nn3)C(=O)O[C@]12C (some centres unmarked) [FSM-100593]; 2
4. CC[C@H]1OC(=O)[C@H](C)C(=O)[C@H](C)[C@@H](O[C@@H]2OC(C)CC(N(C)C)C2O)[C@](C)(OC)C[C@@H](C)C(=O)[C@H](C)[C@H]2N(NCCCn3nc4ccccc4n3)C(=O)O[C@]12C (some centres unmarked) [FSM-140132]; 8
5. CC[C@H]1OC(=O)[C@@](C)(F)C(=O)[C@H](C)[C@@H](O[C@@H]2OC(C)CC(N(C)C)C2O)[C@](C)(OC)C[C@@H](C)C(=O)[C@H](C)[C@H]2N(CC#CCn3cc(-c4cccc(N)n4)nn3)C(=O)O[C@]12C (some centres unmarked) [FSM-100573]; 4

IN: Specify measured MIC for CC[C@H]1OC(=O)[C@@](C)(F)C(=O)[C@H](C)[C@@H](O[C@@H]2OC(C)CC(N(C)C)C2O)[C@](C)(OC)C[C@@H](C)C(=O)[C@H](C)[C@H]2N(CC#CCn3cc(-c4cc(N)ncn4)nn3)C(=O)O[C@]12C (some centres unmarked) [FSM-22745] .
OUT: 16

IN: Return the recorded MIC value; entry: CC[C@H]1OC(=O)[C@@](C)(F)C(=O)[C@H](C)[C@@H](OC2OC(C)CC(N(C)C)C2O)[C@](C)(OC)C[C@@H](C)C(=O)[C@H](C)[C@H]2N(CCCCn3cc(-c4cccc(N)c4)nn3)C(=O)O[C@]12C (some centres unmarked) [Solithro, solithromycin, reference compound]
OUT: 8

IN: Annotate the compound CC[C@H]1OC(=O)[C@@](C)(F)C(=O)[C@H](C)[C@@H](O[C@@H]2OC(C)CC(N(C)C)C2O)[C@](C)(OC)C[C@@H](C)C(=O)[C@H](C)[C@H]2N(CC#CCn3cc(-c4cc(F)ccn4)nn3)C(=O)O[C@]12C (some centres unmarked) [FSM-100563] with its measured MIC.
OUT: 8

###

Below, each entry is listed alongside its reported MIC.
- Tested on: E. coli TEM-1
- protocol-notes: CLSI broth dilution MIC determination
- Type: cell-based
- reported-conditions: E. coli TEM-1; Gram-negative
Express it in µg/mL; write the number only.

1) CC[C@H]1OC(=O)[C@@](C)(F)C(=O)[C@H](C)[C@@H](O[C@@H]2OC(C)CC(N(C)C)C2O)[C@](C)(OC)C[C@@H](C)C(=O)[C@H](C)[C@H]2N(C/C=C/Cn3cc(-c4nccs4)nn3)C(=O)O[C@]12C (stereo partly shown) [FSM-11562]; 16

Lab note: next molecule to report on.
IN: Please give measured MIC of the following entry: CC[C@H]1OC(=O)[C@H](C)C(=O)[C@H](C)[C@@H](O[C@@H]2OC(C)CC(N(C)C)C2O)[C@](C)(OC)C[C@@H](C)C(=O)[C@H](C)[C@H]2N(CC#CCn3cc(-c4cccc(N)c4)nn3)C(=O)O[C@]12C (stereo partly shown) [FSM-100239]
OUT: 16

###

Measured MIC, listed per entry for reference.
- Tested on: E. coli MP-9 ATCC25922:tolC
- protocol-notes: CLSI broth dilution MIC determination
- Assay type: cell-based
- reported-conditions: Escherichia coli, ATCC25922

Consider the following illustrative entries.
1. CC[C@H]1OC(=O)[C@@](C)(F)C(=O)[C@H](C)[C@@H](O[C@@H]2OC(C)CC(N(C)C)C2O)[C@](C)(OC)C[C@@H](C)C(=O)[C@H](C)[C@H]2N(CC#CCn3cc(-c4nccc(N)n4)nn3)C(=O)O[C@]12C (stereo partly shown) [FSM-22749]; 8 µg/mL
2. CC[C@H]1OC(=O)[C@@](C)(F)C(=O)[C@H](C)[C@@H](O[C@@H]2OC(C)CC(N(C)C)C2O)[C@](C)(OC)C[C@@H](C)C(=O)[C@H](C)[C@H]2N(CC#CCn3cc(-c4cccc(F)n4)nn3)C(=O)O[C@]12C (stereo partly shown) [FSM-100627]; 1 µg/mL
3. CC[C@H]1OC(=O)[C@@](C)(F)C(=O)[C@H](C)[C@@H](O[C@@H]2OC(C)CC(N(C)C)C2O)[C@](C)(OC)C[C@@H](C)C(=O)[C@H](C)[C@H]2N(CC#CCn3cc(-c4cc(=O)cc[nH]4)nn3)C(=O)O[C@]12C (stereo partly shown) [FSM-100597]; 4 µg/mL

From here, focus on the item given below.
IN: Identify MIC associated with the molecule CC[C@H]1OC(=O)[C@@](C)(F)C(=O)[C@H](C)[C@@H](O[C@@H]2OC(C)CC(N(C)C)C2O)[C@](C)(OC)C[C@@H](C)C(=O)[C@H](C)[C@H]2N(CC#CCn3cc(-c4cc(F)ccn4)nn3)C(=O)O[C@]12C (stereo partly shown) [FSM-100563]
OUT: 2 µg/mL

###

# MIC per record follows
- System: S. aureus erm A genotype
- protocol-notes: CLSI broth dilution MIC determination
- Assay type: cell-based
- reported-conditions: S. aureus erm A genotype; Gram-positive

1) CC[C@H]1OC(=O)[C@H](C)C(=O)[C@H](C)[C@@H](O[C@@H]2OC(C)CC(N(C)C)C2O)[C@](C)(OC)C[C@@H](C)C(=O)[C@H](C)[C@H]2N(C/C=C/Cn3cc(-c4nccs4)nn3)C(=O)O[C@]12C (some centres unmarked) [FSM-11559]; > 32 µg/mL

Consider the record given below.
IN: Item CC[C@H]1OC(=O)[C@H](C)C(=O)[C@H](C)[C@@H](O[C@@H]2OC(C)CC(N(C)C)C2O)[C@](C)(OC)C[C@@H](C)C(=O)[C@H](C)[C@H]2N(C/C=C/Cn3cnc(-c4ccccn4)c3)C(=O)O[C@]12C (some centres unmarked) [FSM-100421] : provide MIC
OUT: > 32 µg/mL

###

Each entry below lists one item and its recorded MIC value.
- Tested on: S. pneumoniae mef A genotype (first strain so labelled)
- protocol-notes: CLSI broth dilution MIC determination
- Type: cell-based
- reported-conditions: Streptococcus pneumoniae, first strain (MP-626 UNT-038)

Below, each entry is followed by its recorded MIC result.
1) CC[C@H]1OC(=O)[C@@](C)(F)C(=O)[C@H](C)[C@@H](O[C@@H]2OC(C)CC(N(C)C)C2O)[C@](C)(OC)C[C@@H](C)C(=O)[C@H](C)[C@H]2N(CC#CCn3cc(-c4cc(F)ccn4)nn3)C(=O)O[C@]12C (stereo partly drawn); < 0.03 µg/mL
2) CC[C@H]1OC(=O)[C@@](C)(F)C(=O)[C@H](C)[C@@H](O[C@@H]2OC(C)CC(N(C)C)C2O)[C@](C)(OC)C[C@@H](C)C(=O)[C@H](C)[C@H]2N(CC#CCn3cc(-c4cccc(N)c4)nn3)C(=O)O[C@]12C (stereo partly drawn); < 0.0312 µg/mL
3) CC[C@H]1OC(=O)[C@@](C)(F)C(=O)[C@H](C)[C@@H](O[C@@H]2OC(C)CC(N(C)C)C2O)[C@](C)(OC)C[C@@H](C)C(=O)[C@H](C)[C@H]2N(CC#CCn3cc(-c4cccc(N)n4)nn3)C(=O)O[C@]12C (stereo partly drawn); < 0.03 µg/mL
4) CC[C@H]1OC(=O)[C@@](C)(F)C(=O)[C@H](C)[C@@H](O[C@@H]2OC(C)CC(N(C)C)C2O)[C@](C)(OC)C[C@@H](C)C(=O)C[C@H]2N(CCCCn3cc(-c4cccc(N)c4)nn3)C(=O)O[C@]12C (stereo partly drawn); ≤ 0.0312 µg/mL
5) CC[C@H]1OC(=O)[C@H](C)C(=O)[C@H](C)[C@@H](O[C@@H]2OC(C)CC(N(C)C)C2O)[C@](C)(OC)C[C@@H](C)C(=O)[C@H](C)[C@H]2N(CC#CCn3cc(-c4cccc(N)n4)nn3)C(=O)O[C@]12C (stereo partly drawn); < 0.03 µg/mL

Now look at this one.
IN: In one line, give reported MIC of the entry CC[C@H]1OC(=O)[C@H](C)C(=O)[C@H](C)[C@@H](O[C@@H]2OC(C)CC(N(C)C)C2O)[C@](C)(OC)C[C@@H](C)C(=O)[C@H](C)[C@H]2N(CC#CCn3cc(-c4cc(F)ccn4)nn3)C(=O)O[C@]12C (stereo partly drawn) .
OUT: < 0.03 µg/mL
